System: Rattus norvegicus
assayExplanation: Ratio of urinary excretion value (urinary volume) in treated rats to that in control rats, at a peroral dose of 25 mg/Kg
Type: functional, Urine
Kindly state T/C for each of the entries shown.
Write no unit; give the number alone.

Requested read-out: T/C. Entry: "CCCn1c(=O)c2nc(C(C3CC3)C3CC3)[nH]c2n(CCC)c1=O"
2.44

Recorded T/C of Cn1c(=O)c2nc[nH]c2n(C)c1=O.O [THEOPHYLLINE] , please.
1.34

Which T/C value belongs to "CCCn1c(=O)c2nc(C34CC5CC(CC(C5)C3)C4)[nH]c2n(CCC)c1=O" ?
2.29

Suppose we examine the molecule "CCCn1c(=O)c2c(nc(C3CCCC3)n2C)n(CCC)c1=O" ; what T/C value has been reported?
1.45

What measured T/C goes with "CCCn1c(=O)c2c(nc(C(C3CC3)C3CC3)n2CC(=O)O)n(CCC)c1=O" ?
1.15

====

measurementName: Ki (nM)
Hi! Could you send only the number? It should be in nM, unit omitted.

Could you share what Ki was measured for "FC(F)(F)c1nnc2c(NC3CCCC3)nc3ccccc3n12" , tested on Adenosine A2 receptor (Rattus norvegicus, UniProt P29276+P30543)?
1300

Find Ki (Adenosine A2 receptor (Rattus norvegicus, UniProt P29276+P30543)) for the entry "Nc1nc2ccc(Cl)cc2n2c(-c3ccccc3)nnc12"
5.1

Which measured Ki belongs to "Cn1c(=O)c2nc(-c3ccccc3)[nH]c2n(C)c1=O" , tested on Adenosine A2 receptor (Rattus norvegicus, UniProt P29276+P30543)?
2300

Requested read-out Ki, target or system Adenosine A2 receptor (Rattus norvegicus, UniProt P29276+P30543), entry "Nc1nc2ccc(Cl)cc2c2nc(-c3ccco3)nn12"
0.73

====

Please consider the recorded Ki for Adenosine A2 receptor (Rattus norvegicus, UniProt P29276+P30543) in what follows.
A number alone suffices; assume nM.

Consider the compound "Nc1nc2ccc(Cl)cc2n2c(-c3ccccc3)nnc12" and give its measured Ki.
21

For the compound "CCCn1c(=O)c2nc(-c3ccc(S(=O)(=O)N(C)CCN(C)C)cc3)[nH]c2n(CCC)c1=O" , what Ki is on record?
15.5

Request the reported Ki associated with "FC(F)(F)c1nnc2c(NC3CCCC3)nc3ccc(Cl)cc3n12"
2100

# Ki lookup, item "Nc1nc2ccc(Cl)cc2c2nc(-c3ccco3)nn12"
3.3

====

// Adenosine A2 receptor (Rattus norvegicus, UniProt P29276+P30543) Ki records

Reported Ki, compound "CCn1c(=O)c2nc(C3CCCC3)[nH]c2n(CC)c1=O" : ____
440 nM

Need Ki, item "CCCn1c(=O)c2nc(C(C3CC3)C3CC3)[nH]c2n(CCC)c1=O"
430 nM

Recorded Ki for "CCCn1c(=O)c2nc(-c3ccc(S(=O)(=O)N(C)CCN(C)C)cc3)[nH]c2n(CCC)c1=O" , please?
26 nM

What Ki value was documented for this compound, "CCCn1c(=O)[nH]c(=O)c2[nH]c(C(C3CC3)C3CC3)nc21" ?
> 100000 nM

Returns the measured Ki for the input compound. Input: "CCCn1c(=O)c2c(nc(C3CCCC3)n2C)n(CCC)c1=O"
> 10000 nM

Could you tell me which Ki is on file for "CCCn1c(=O)c2nc(C3C(C)(C)CCC3(C)C)[nH]c2n(CCC)c1=O" ?
> 100000 nM

// lookup Ki for "CCn1c(=O)c2nc(C(C3CC3)C3CC3)[nH]c2n(CC)c1=O"
690 nM

Any idea what its Ki is? The compound is CCCn1c(=O)c2nc(C3CC4C=CC3C4)[nH]c2n(CCC)c1=O (stereo in doubt; 18)
210 nM

Consider the compound "CCn1c(=O)c2nc(C34CC5CC(CC3C5)C4)[nH]c2n(CC)c1=O" and give its measured Ki.
1600 nM

Could you share which Ki value was measured for "CC(C)Cn1c(=O)n(C)c(=O)c2[nH]c(C(C3CC3)C3CC3)nc21" ?
410 nM

Recorded Ki for "CCCCn1c(=O)c2nc(C3CCCC3)[nH]c2n(CCCC)c1=O" , please?
170 nM

Which Ki value belongs to "CCCn1c(=O)[nH]c(=O)c2[nH]c(C34CC5CC(CC3C5)C4)nc21" ?
> 100000 nM

I would be grateful if you could share the reported Ki for "CCCn1c(=O)c2c(nc(C(C3CC3)C3CC3)n2CCC)n(CCC)c1=O" .
6300 nM

Need Ki, item "Cn1c(=O)c2nc(C34CC5CC(CC3C5)C4)[nH]c2n(C)c1=O"
1200 nM

Entry "CCCn1c(=O)c2nc(CC34CC5CC(CC(C5)C3)C4)[nH]c2n(CCC)c1=O" : reported Ki = ?
> 100000 nM

Quick one: Ki for "CC(C)Cn1c(=O)n(C)c(=O)c2[nH]c(C34CC5CC(CC3C5)C4)nc21" ?
850 nM

Fill in: Ki of CCCn1c(=O)c2nc(C3CC4C=CC3C4)[nH]c2n(CCC)c1=O (stereo in doubt; 17) is ___
480 nM

Give its Ki value. Item: "CC(C)Cn1c(=O)n(C)c(=O)c2[nH]c(C3CCCC3)nc21"
880 nM

Find the recorded Ki belonging to CCCn1c(=O)c2nc(C[C@H]3CC4CCC3C4)[nH]c2n(CCC)c1=O (some centres undefined) and report it.
1000 nM

====

Would you kindly list T/C for each of these compounds?
Tested on: Rattus norvegicus
assayExplanation: Ratio of urinary excretion value (urinary volume) in treated rats to that in control rats, at a peroral dose of 25 mg/Kg
Assay type: functional, Urine
Response field accepts a number only; no unit should be typed.

Which value of T/C has been reported for "CCCn1c(=O)c2c(nc(C(C3CC3)C3CC3)n2CC)n(CCC)c1=O" in the records?
2.42

Please give the measured T/C for this compound: "CCCn1c(=O)c2[nH]c(-c3ccc(OCC(=O)NCCN)cc3)nc2n(CCC)c1=O"
1.05

# query: T/C of entry "CCCn1c(=O)c2nc(CC34CC5CC(CC(C5)C3)C4)[nH]c2n(CCC)c1=O"
0.64

Given CCCn1c(=O)c2nc(C3CC4CCC3C4)[nH]c2n(CCC)c1=O (stereo in doubt; 20) , state its recorded T/C.
2.13

Can you share its T/C? I mean this compound: CCCn1c(=O)c2nc(C[C@H]3CC4CCC3C4)[nH]c2n(CCC)c1=O (stereo not given in full)
2.41

====

Answer each item with its documented T/C.
Tested on: Rattus norvegicus
assayExplanation: Ratio of urinary excretion value (urinary volume) in treated rats to that in control rats, at a peroral dose of 6.25 mg/Kg
Assay type: functional, Urine
No unit in the answer, only the number.

# T/C lookup, item "CCCn1c(=O)c2nc(-c3ccc(S(=O)(=O)N(C)CCN(C)C)cc3)[nH]c2n(CCC)c1=O"
1.17

Bench note: what T/C did "CCCn1c(=O)c2c(nc(C(C3CC3)C3CC3)n2C)n(CCC)c1=O" show?
1.78

Which measured T/C value corresponds to Cn1c(=O)c2nc[nH]c2n(C)c1=O.O [THEOPHYLLINE] ?
1.42

Which measured T/C value corresponds to "CCCn1c(=O)c2nc(C(C3CC3)C3CC3)[nH]c2n(CCC)c1=O" ?
2.39

For the compound shown here, NS(=O)(=O)c1cc(C(=O)O)c(NCc2ccco2)cc1Cl [FUROSEMIDE] , give the reported T/C.
1.59

Returns the measured T/C for the input compound. Input: Cn1c(=O)c2nc(C3CCCC3)[nH]c2n(C)c1=O [8-CYCLOPENTYLTHEOPHYLLINE]
1.64

I am curious: what T/C value has been reported for "CCCn1c(=O)c2c(nc(C(C3CC3)C3CC3)n2CC)n(CCC)c1=O" ?
1.19

Need T/C, item CCCn1c(=O)c2nc(C3CC4CCC3C4)[nH]c2n(CCC)c1=O (stereo in doubt; 20)
1.12

What does the data say about its T/C? Entry: "CCCn1c(=O)[nH]c(=O)c2[nH]c(C34CC5CC(CC3C5)C4)nc21"
1.26

For the compound "CCCn1c(=O)[nH]c(=O)c2[nH]c(C3CCCC3)nc21" , what T/C is on record?
1.76

I have this compound here, CCCn1c(=O)c2nc(C34CC5CC(CC3C5)C4)[nH]c2n(CCC)c1=O [ROLOFYLLINE] , and I need its recorded T/C.
2.9

Entry under review: CCCn1c(=O)c2nc(C3CC4C=CC3C4)[nH]c2n(CCC)c1=O (stereo in doubt; 17) . Reported T/C?
2.56

Which value of T/C has been reported for "FC(F)(F)c1nnc2c(NC3CCCC3)nc3ccc(Cl)cc3n12" in the records?
2.17

Record request: T/C value, item "CCCn1c(=O)c2[nH]c(C3CCCC3)nc2n(CCC)c1=O"
1.87

// returns reported T/C for input "CCCn1c(=O)[nH]c(=O)c2[nH]c(C(C3CC3)C3CC3)nc21"
1.42

Need T/C, item "FC(F)(F)c1nnc2c(NC3CCCC3)nc3ccccc3n12"
0.92

What T/C value was documented for this compound, Cn1c(=O)c2c(ncn2C)n(C)c1=O [CAFFEINE] ?
0.92

// T/C lookup, key: Cn1c(=O)c2nc(-c3ccccc3)[nH]c2n(C)c1=O [8-PHENYL THEOPHYLLINE]
1.79

Taken from ChEMBL document CHEMBL1125524.
